# measurement.description: Mesophase behaviour by polarized optical microscopy (POM)
# Type: physicochemical
# test.settings: POM, equilibration 1 h
recorded.endpoint: Appearance of the Lyotropic phase at excess water (25° C.-50° C.)

CCCCC/C=C\C/C=C\CCCCCCCC(=O)[O][Pt]([Cl])([Cl])[O]C(=O)CCCCCCC/C=C\C/C=C\CCCCC.N.N [CP-bis (linoleoyl), cis,cis,trans-[PtCl2(NH3)2(linoleoyl)2]]; No distinct mesophases
CCCCCCCC/C=C\CCCCCCCC(=O)[O][Pt]([NH2])([NH2])([Cl])([Cl])[O]C(=O)CCCCCCC/C=C\CCCCCCCC [CP-bis (oleoyl), cis,cis,trans-[PtCl2(NH3)2(oleoyl)2]]; No distinct mesophases
CC(C)CCCC(C)CCCC(C)CCCC(C)CC(=O)[O][Pt]([NH2])([NH2])([Cl])([Cl])[O]C(=O)CC(C)CCCC(C)CCCC(C)CCCC(C)C (mixture of isomers) [CP-bis (phytanoyl), cis,cis,trans-[PtCl2(NH3)2(phytanoyl)2]]; No distinct mesophases

###

Record form. Attribute: lattice parameter, neat non-hydrated. Fill in for each entry.
# measurement.description: SAXS of neat and hydrated amphiphiles (phase, lattice parameter)
# Format: physicochemical
# test.settings: temperature not given
# Protocol: SAXS analyses of the bulk and lyotropic phases of the amphiphiles were performed on a Bruker NanoSTAR laboratory SAXS instrument (Brucker AXS, Kalsruhe, Germany). The equilibrated lyotropic phases were placed into a demountable button sample cell. For the analysis of the dispersions, a multi-capillary holder was used. Button cells and capillary holder interchangeably fit into a block setup that was temperature-controlled with a Peltier heater-cooler system. […]
One number for each entry, in Å.

CCCCCCCC/C=C\CCCCCCCC(=O)OCCOCCOCCOC(=O)[O][Pt]([NH2])([NH2])([Cl])([Cl])[O]C(=O)OCCOCCOCCOC(=O)CCCCCCC/C=C\CCCCCCCC; 40.80
CCCCCCCC/C=C\CCCCCCCC(=O)OCCOCCOCCNC(=O)CCC(=O)[O][Pt]([NH2])([NH2])([Cl])([Cl])[O]C(=O)CCC(=O)NCCOCCOCCOC(=O)CCCCCCC/C=C\CCCCCCCC [CP-bis(suc-amino-PEG3-oleoyl)]; 46.20
CCCCC/C=C\C/C=C\CCCCCCCC(=O)[O][Pt]([Cl])([Cl])[O]C(=O)CCCCCCC/C=C\C/C=C\CCCCC.N.N [CP-bis (linoleoyl), cis,cis,trans-[PtCl2(NH3)2(linoleoyl)2]]; 33.5

query: Field request: lattice parameter, neat non-hydrated | item: CCCCCCCC/C=C\CCCCCCCC(=O)[O][Pt]([NH2])([NH2])([Cl])([Cl])[O]C(=O)CCCCCCC/C=C\CCCCCCCC [CP-bis (oleoyl), cis,cis,trans-[PtCl2(NH3)2(oleoyl)2]]
result: 34.2
